The measured values listed here are drawn from PubChem BioAssay (NCI).

- Tested on: MDA-MB-435
- assaySummary: NCI tumour cell line growth inhibition, 48 h
Reported TGI values are given for each entry in this list.
experimentalReadout: TGI (µM)

| moleculeSmiles | unitInfo | qual | experimentalResult |
| --- | --- | --- | --- |
| CCN1CCN(C(=O)[C@]23CC[C@@H](C)[C@H](C)[C@@H]2C2=CC[C@@H]4[C@@]5(C)C/C(=C/c6ccncc6)C(=O)C(C)(C)[C@@H]5CC[C@@]4(C)[C@]2(C)CC3)CC1 | µM | = | 3.24 |
| CC(=O)N[C@H]1C=C[C@@H]2/C=C(C)/C=C/[C@@H](C)[C@H]([C@H](C)[C@H](O)[C@@H](C)NC(C)=O)OC(=O)/C=C/C=C(C)\C=C\[C@]2(C)C1 | µM | = | 4.65 |
| CN(C)c1ccc(/C=N\NC(=O)c2ccccc2Nc2ccccc2C(=O)N/N=C/c2ccc(N(C)C)cc2)cc1 | µM | > | 100 |
| O=C(/C=C/c1ccc(F)cc1)c1ccc(Cl)cc1Cl | µM | > | 100 |
| Cc1cc(C)nc(NS(=O)(=O)c2ccc(Nc3c4ccccc4nc4c(C(=O)NNCCO)cccc34)cc2)n1 | µM | > | 100 |
